# Assay System: UniProt:Q96SB4
# Sequence (Q96SB4 whole entry, looked up): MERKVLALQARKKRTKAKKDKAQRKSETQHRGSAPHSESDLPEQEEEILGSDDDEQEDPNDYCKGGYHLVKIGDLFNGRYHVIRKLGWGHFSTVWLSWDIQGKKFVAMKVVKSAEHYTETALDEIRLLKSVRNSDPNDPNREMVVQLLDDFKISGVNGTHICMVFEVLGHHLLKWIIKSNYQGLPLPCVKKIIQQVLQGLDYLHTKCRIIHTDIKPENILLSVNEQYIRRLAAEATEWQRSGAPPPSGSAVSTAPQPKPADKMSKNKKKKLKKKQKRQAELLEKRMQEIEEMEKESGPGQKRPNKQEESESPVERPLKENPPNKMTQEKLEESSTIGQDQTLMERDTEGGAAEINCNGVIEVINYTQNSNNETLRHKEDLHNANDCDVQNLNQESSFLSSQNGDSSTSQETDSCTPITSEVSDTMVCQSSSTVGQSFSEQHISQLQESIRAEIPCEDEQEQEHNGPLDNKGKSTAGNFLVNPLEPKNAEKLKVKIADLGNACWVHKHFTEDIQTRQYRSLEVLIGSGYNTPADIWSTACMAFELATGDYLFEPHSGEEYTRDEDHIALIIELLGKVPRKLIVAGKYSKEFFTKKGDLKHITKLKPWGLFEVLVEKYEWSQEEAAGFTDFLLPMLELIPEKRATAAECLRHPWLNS
# Assay Summary: KINOMEscan competition binding
# Conditions Used: compound 10.0 µM
Measured Parameter: kinase still bound, per cent of control (%)
Give bare numbers, in %.

Worked set:
# Test Smiles, Measurement Unit, kinase still bound, per cent of control
data = [
    ("Cc1cnc(-c2cnc(NCCNc3ccc(C#N)cn3)nc2-c2ccc(Cl)cc2Cl)[nH]1", "%", 100),
    ("O=C1Nc2cc(Br)ccc2/C1=C1/Nc2ccccc2/C1=N\\O", "%", 5),
    ("COc1ccc(CNC(=O)Nc2ncc([N+](=O)[O-])s2)cc1", "%", 100),
]

Next up:
**Q:** Report kinase still bound, per cent of control from UniProt:Q96SB4 testing of Cn1cc(C2=C(c3ccc(Cl)cc3Cl)C(=O)NC2=O)c2ccccc21
**A:** 89

###

# Assay System: NEK2 (human) (UniProt P51955)
# Sequence (P51955 whole entry, looked up): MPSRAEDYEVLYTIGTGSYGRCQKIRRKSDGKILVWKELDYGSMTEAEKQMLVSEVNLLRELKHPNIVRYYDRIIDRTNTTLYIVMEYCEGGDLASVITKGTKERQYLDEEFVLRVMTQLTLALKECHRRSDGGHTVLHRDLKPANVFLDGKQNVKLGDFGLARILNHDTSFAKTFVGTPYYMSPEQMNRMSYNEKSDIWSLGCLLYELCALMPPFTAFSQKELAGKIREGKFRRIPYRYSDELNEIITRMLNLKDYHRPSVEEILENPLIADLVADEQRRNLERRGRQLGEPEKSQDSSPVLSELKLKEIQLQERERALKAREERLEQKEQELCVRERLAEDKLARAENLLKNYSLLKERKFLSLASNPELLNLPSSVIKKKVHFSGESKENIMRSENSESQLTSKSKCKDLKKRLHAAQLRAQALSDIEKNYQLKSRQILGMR
# Assay Summary: KINOMEscan competition binding
# Conditions Used: compound 10.0 µM
Kindly supply the reported kinase still bound, per cent of control values for the records listed here.

Consider the following illustrative entries.
# Test Smiles, Measured Parameter, Measured
records = [
    ("Cc1cnc(-c2cnc(NCCNc3ccc(C#N)cn3)nc2-c2ccc(Cl)cc2Cl)[nH]1", "kinase still bound, per cent of control", "72%"),
    ("COc1ccc(CNC(=O)Nc2ncc([N+](=O)[O-])s2)cc1", "kinase still bound, per cent of control", "90%"),
    ("Cn1cc(C2=C(c3ccc(Cl)cc3Cl)C(=O)NC2=O)c2ccccc21", "kinase still bound, per cent of control", "85%"),
]

Pending compound:
**Q:** Report kinase still bound, per cent of control for O=C1Nc2cc(Br)ccc2/C1=C1/Nc2ccccc2/C1=N\O
**A:** 82%

###

# Assay System: MAPK7 (human)
# Assay Summary: KINOMEscan competition binding
# Conditions Used: compound 10.0 µM
Give measured kinase still bound, per cent of control for each item. Keep answers brief.
One number for each entry, in %.

# Test Smiles, Measurement Unit, kinase still bound, per cent of control
data = [
    ("Cc1cnc(-c2cnc(NCCNc3ccc(C#N)cn3)nc2-c2ccc(Cl)cc2Cl)[nH]1", "%", 100),
    ("COc1ccc(CNC(=O)Nc2ncc([N+](=O)[O-])s2)cc1", "%", 97),
    ("O=C1Nc2cc(Br)ccc2/C1=C1/Nc2ccccc2/C1=N\\O", "%", 100),
]

Now look at this entry.
**Q:** Provide only the value of recorded kinase still bound, per cent of control for Cn1cc(C2=C(c3ccc(Cl)cc3Cl)C(=O)NC2=O)c2ccccc21
**A:** 79

###

What kinase still bound, per cent of control was measured for each of the following?
# Assay System: PIP5K1A (human)
# Assay Summary: KINOMEscan competition binding
# Conditions Used: compound 10.0 µM
For clarity, give the value followed by its unit.

// known answers, use as guide
# Test Smiles, Assay System, Measured
records = [
    ("Cn1cc(C2=C(c3ccc(Cl)cc3Cl)C(=O)NC2=O)c2ccccc21", "PIP5K1A (human)", "100%"),
    ("O=C1Nc2cc(Br)ccc2/C1=C1/Nc2ccccc2/C1=N\\O", "PIP5K1A (human)", "0%"),
    ("COc1ccc(CNC(=O)Nc2ncc([N+](=O)[O-])s2)cc1", "PIP5K1A (human)", "70%"),
]

**Q:** # return kinase still bound, per cent of control of Cc1cnc(-c2cnc(NCCNc3ccc(C#N)cn3)nc2-c2ccc(Cl)cc2Cl)[nH]1 (system: PIP5K1A (human))
**A:** 100%

###

# Assay System: STK39 (human) (UniProt Q9UEW8)
# Assay Summary: KINOMEscan competition binding
# Conditions Used: compound 10.0 µM
Measured Parameter: kinase still bound, per cent of control (%)
Answers are plain numbers, in %.

# Test Smiles, Measurement Unit, kinase still bound, per cent of control
rows = [
    ("O=C1Nc2cc(Br)ccc2/C1=C1/Nc2ccccc2/C1=N\\O", "%", 37),
    ("Cc1cnc(-c2cnc(NCCNc3ccc(C#N)cn3)nc2-c2ccc(Cl)cc2Cl)[nH]1", "%", 67),
    ("Cn1cc(C2=C(c3ccc(Cl)cc3Cl)C(=O)NC2=O)c2ccccc21", "%", 100),
]

**Q:** Please indicate kinase still bound, per cent of control recorded for COc1ccc(CNC(=O)Nc2ncc([N+](=O)[O-])s2)cc1
**A:** 100

###

Give kinase still bound, per cent of control for every item shown.
# Assay System: MAP2K6 (human) (UniProt P52564)
# Sequence (P52564 whole entry, looked up): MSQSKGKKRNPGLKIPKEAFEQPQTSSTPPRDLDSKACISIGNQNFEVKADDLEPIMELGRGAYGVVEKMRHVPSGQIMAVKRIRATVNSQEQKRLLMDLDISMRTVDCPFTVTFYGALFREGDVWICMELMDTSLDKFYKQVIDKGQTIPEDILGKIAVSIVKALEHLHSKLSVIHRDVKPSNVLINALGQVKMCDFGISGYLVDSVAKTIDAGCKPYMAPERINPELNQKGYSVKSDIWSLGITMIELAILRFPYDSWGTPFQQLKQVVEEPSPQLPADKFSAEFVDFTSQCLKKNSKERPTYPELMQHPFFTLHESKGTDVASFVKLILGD
# Assay Summary: KINOMEscan competition binding
# Conditions Used: compound 10.0 µM
Give bare numbers, in %.

# Test Smiles, Measurement Unit, kinase still bound, per cent of control
data = [
    ("Cc1cnc(-c2cnc(NCCNc3ccc(C#N)cn3)nc2-c2ccc(Cl)cc2Cl)[nH]1", "%", 73),
    ("O=C1Nc2cc(Br)ccc2/C1=C1/Nc2ccccc2/C1=N\\O", "%", 47),
    ("Cn1cc(C2=C(c3ccc(Cl)cc3Cl)C(=O)NC2=O)c2ccccc21", "%", 57),
]

// next entry
**Q:** Answer with the recorded kinase still bound, per cent of control for the molecule listed here: COc1ccc(CNC(=O)Nc2ncc([N+](=O)[O-])s2)cc1
**A:** 98

###

Provide the recorded kinase still bound, per cent of control for the entries that follow.
# Assay System: IKBKB (human) (UniProt O14920)
# Sequence (O14920 whole entry, looked up): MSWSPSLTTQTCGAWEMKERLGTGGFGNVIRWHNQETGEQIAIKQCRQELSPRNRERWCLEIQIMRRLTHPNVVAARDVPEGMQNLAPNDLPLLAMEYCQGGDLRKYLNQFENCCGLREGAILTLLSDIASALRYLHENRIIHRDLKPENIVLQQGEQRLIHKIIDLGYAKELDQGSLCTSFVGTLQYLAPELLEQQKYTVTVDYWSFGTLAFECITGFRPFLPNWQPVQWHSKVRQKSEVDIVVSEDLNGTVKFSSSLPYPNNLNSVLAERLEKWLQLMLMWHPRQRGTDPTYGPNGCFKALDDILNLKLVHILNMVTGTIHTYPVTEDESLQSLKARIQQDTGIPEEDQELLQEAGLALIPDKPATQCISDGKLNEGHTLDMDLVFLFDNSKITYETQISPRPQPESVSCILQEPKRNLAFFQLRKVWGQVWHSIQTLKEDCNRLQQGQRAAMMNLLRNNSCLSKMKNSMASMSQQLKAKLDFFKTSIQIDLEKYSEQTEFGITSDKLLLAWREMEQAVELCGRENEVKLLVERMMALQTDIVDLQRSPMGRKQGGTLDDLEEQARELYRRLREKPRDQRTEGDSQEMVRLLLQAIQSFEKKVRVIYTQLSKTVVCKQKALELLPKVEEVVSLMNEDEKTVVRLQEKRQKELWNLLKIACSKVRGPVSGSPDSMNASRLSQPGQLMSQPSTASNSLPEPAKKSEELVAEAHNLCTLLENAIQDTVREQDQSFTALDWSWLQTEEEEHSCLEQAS
# Assay Summary: KINOMEscan competition binding
# Conditions Used: compound 10.0 µM
Give bare numbers, in %.

Record excerpt, results attached:
# Test Smiles, kinase still bound, per cent of control (%)
measured = [
    ("Cc1cnc(-c2cnc(NCCNc3ccc(C#N)cn3)nc2-c2ccc(Cl)cc2Cl)[nH]1", 80),
    ("O=C1Nc2cc(Br)ccc2/C1=C1/Nc2ccccc2/C1=N\\O", 78),
    ("Cn1cc(C2=C(c3ccc(Cl)cc3Cl)C(=O)NC2=O)c2ccccc21", 83),
]

**Q:** Specify measured kinase still bound, per cent of control for COc1ccc(CNC(=O)Nc2ncc([N+](=O)[O-])s2)cc1 .
**A:** 100

###

I'd appreciate it if you could supply kinase still bound, per cent of control values for the items below.
# Assay System: FGFR1 (human) (UniProt P11362)
# Sequence (P11362 whole entry, looked up): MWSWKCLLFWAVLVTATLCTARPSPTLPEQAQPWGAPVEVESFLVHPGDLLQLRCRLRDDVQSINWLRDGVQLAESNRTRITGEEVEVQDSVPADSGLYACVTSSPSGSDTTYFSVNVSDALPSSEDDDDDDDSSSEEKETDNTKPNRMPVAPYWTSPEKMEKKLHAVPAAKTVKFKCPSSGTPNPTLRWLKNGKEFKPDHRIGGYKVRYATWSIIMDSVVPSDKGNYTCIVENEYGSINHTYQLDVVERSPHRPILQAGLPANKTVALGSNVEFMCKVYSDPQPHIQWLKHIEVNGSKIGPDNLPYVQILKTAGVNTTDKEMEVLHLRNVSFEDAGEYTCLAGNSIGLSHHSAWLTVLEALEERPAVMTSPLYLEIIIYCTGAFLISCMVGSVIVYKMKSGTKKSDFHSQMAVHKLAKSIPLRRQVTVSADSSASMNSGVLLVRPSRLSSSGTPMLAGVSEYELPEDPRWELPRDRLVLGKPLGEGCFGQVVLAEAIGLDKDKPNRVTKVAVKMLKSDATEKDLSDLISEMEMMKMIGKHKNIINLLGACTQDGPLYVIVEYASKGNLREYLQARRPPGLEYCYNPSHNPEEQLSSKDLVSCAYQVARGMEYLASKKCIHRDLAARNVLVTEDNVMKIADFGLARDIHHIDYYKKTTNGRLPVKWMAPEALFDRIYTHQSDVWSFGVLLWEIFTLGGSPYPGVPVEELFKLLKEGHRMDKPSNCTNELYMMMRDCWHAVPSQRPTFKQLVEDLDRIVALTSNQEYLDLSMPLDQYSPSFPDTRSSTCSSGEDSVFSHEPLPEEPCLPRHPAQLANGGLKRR
# Assay Summary: KINOMEscan competition binding
# Conditions Used: compound 10.0 µM
Give bare numbers, in %.

Take a look at these entries with their results.
# Test Smiles, Measurement Unit, Measured
rows = [
    ("COc1ccc(CNC(=O)Nc2ncc([N+](=O)[O-])s2)cc1", "%", 100),
    ("Cc1cnc(-c2cnc(NCCNc3ccc(C#N)cn3)nc2-c2ccc(Cl)cc2Cl)[nH]1", "%", 100),
    ("Cn1cc(C2=C(c3ccc(Cl)cc3Cl)C(=O)NC2=O)c2ccccc21", "%", 100),
]

Okay, now this molecule:
**Q:** Provide one value: measured kinase still bound, per cent of control of O=C1Nc2cc(Br)ccc2/C1=C1/Nc2ccccc2/C1=N\O
**A:** 18

###

# Assay System: CDK19 (human)
# Assay Summary: KINOMEscan competition binding
# Conditions Used: compound 10.0 µM
Measured Parameter: kinase still bound, per cent of control (%)
Numbers only, in %.

As a guide, the following entries are already answered.
# Test Smiles, Measured Parameter, Measured
records = [
    ("Cc1cnc(-c2cnc(NCCNc3ccc(C#N)cn3)nc2-c2ccc(Cl)cc2Cl)[nH]1", "kinase still bound, per cent of control", 100),
    ("Cn1cc(C2=C(c3ccc(Cl)cc3Cl)C(=O)NC2=O)c2ccccc21", "kinase still bound, per cent of control", 100),
    ("COc1ccc(CNC(=O)Nc2ncc([N+](=O)[O-])s2)cc1", "kinase still bound, per cent of control", 100),
]

Kindly review the next molecule as well.
**Q:** Output measured kinase still bound, per cent of control for this item: O=C1Nc2cc(Br)ccc2/C1=C1/Nc2ccccc2/C1=N\O
**A:** 100

###

# Assay System: MAPK10 (human) (UniProt P53779)
# Sequence (P53779 whole entry, looked up): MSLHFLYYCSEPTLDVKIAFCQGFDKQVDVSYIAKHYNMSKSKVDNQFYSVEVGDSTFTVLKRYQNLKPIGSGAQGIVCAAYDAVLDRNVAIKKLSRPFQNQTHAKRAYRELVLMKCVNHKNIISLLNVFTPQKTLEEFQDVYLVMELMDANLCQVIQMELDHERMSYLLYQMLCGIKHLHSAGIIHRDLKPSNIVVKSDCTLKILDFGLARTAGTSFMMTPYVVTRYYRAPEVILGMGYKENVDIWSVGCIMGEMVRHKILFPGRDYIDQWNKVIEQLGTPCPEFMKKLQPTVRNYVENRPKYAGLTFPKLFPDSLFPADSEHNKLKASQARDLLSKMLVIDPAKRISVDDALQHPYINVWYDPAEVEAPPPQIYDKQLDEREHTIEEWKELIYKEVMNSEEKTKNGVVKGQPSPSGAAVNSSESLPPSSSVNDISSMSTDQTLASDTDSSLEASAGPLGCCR
# Assay Summary: KINOMEscan competition binding
# Conditions Used: compound 10.0 µM
Measured Parameter: kinase still bound, per cent of control (%)
Answers are plain numbers, in %.

These solved cases illustrate the format of a correct answer.
# Test Smiles, Assay System, Measured Parameter, Measurement Unit, Measured
measured = [
    ("O=C1Nc2cc(Br)ccc2/C1=C1/Nc2ccccc2/C1=N\\O", "MAPK10 (human) (UniProt P53779)", "kinase still bound, per cent of control", "%", 12),
    ("Cc1cnc(-c2cnc(NCCNc3ccc(C#N)cn3)nc2-c2ccc(Cl)cc2Cl)[nH]1", "MAPK10 (human) (UniProt P53779)", "kinase still bound, per cent of control", "%", 64),
    ("COc1ccc(CNC(=O)Nc2ncc([N+](=O)[O-])s2)cc1", "MAPK10 (human) (UniProt P53779)", "kinase still bound, per cent of control", "%", 53),
]

**Q:** Give kinase still bound, per cent of control for Cn1cc(C2=C(c3ccc(Cl)cc3Cl)C(=O)NC2=O)c2ccccc21
**A:** 62
